Collected T/C values appear next to each entry.
# System: L1210 leukemia ip in BDF1 mice, survival T/C
# RUN DESCRIPTION: NCI In Vivo Anticancer Drug Screen. Data for tumor model L1210 Leukemia (intraperitoneal) in B6D2F1 (BDF1) mice
# RECORDED CONDITIONS: endpoint: mean survival time; dose: 100.0 mg/kg/injection; schedule: Q01DX001 (ip); vehicle: saline; higher = longer survival
Inconclusive results and toxic doses are left out.

Use the examples below as a reference point.
COMPOUND: NC(=O)C(c1ccccc1)C1(O)CCCCC1 (centres undefined)
TARGET UNDER TEST: L1210 leukemia ip in BDF1 mice, survival T/C
T/C: 104 % of control

COMPOUND: CCC1c2ccc3cc(OC)ccc3c2C(=O)C1CC(=O)O (centres undefined)
TARGET UNDER TEST: L1210 leukemia ip in BDF1 mice, survival T/C
T/C: 93 % of control

COMPOUND: Oc1ccc(-c2ccccc2)cc1O
TARGET UNDER TEST: L1210 leukemia ip in BDF1 mice, survival T/C
T/C: 105 % of control

COMPOUND: Nc1nc(N)c(-c2ccc(Cl)cc2)c(CO)n1
TARGET UNDER TEST: L1210 leukemia ip in BDF1 mice, survival T/C
T/C: 93 % of control

// next item, T/C requested
Prompt: Identify T/C associated with the compound CC(C)(CBr)C(=O)Cl
Response: 101 % of control
